Assay Procedure: Phase I single ascending dose study, pharmacokinetics of P5P enteric-coated tablet
Assay type: in vivo, healthy subjects
Assay Context: both sexes, human, plasma; single oral dose 250 mg, fasting, baseline-corrected
Quantity Measured: Cmax (ng/mL)

INSERT INTO results (structure_string, val) VALUES
  ('Cc1ncc(COP(=O)(O)O)c(C=O)c1O', 300);

###

Assay Procedure: Phase I single ascending dose study, pharmacokinetics of P5P enteric-coated tablet
Assay type: in vivo, healthy subjects
Assay Context: both sexes, human; single oral dose 4000 mg, fasting, baseline-corrected plasma P5P
Quantity Measured: AUC(0-t) (ng·h/mL)

INSERT INTO measurements (compound, quantity_measured, val) VALUES
  ('Cc1ncc(COP(=O)(O)O)c(C=O)c1O [P5P]', 'AUC(0-t)', 6900);
